# method-description: Protein binding in mouse plasma assessed as unbound fraction
# Type: ADME, cell-free
Parameter fraction unbound: see the listing below.
Please reply with the value in numeric form only.

Example results:
[[record]]
mol = "N#Cc1c(F)cc(-n2c(C(=O)NC3CC3)cc3cccnc32)cc1F"
assay_result = 0.096

[[record]]
mol = "O=C(c1nc2cccnc2n1-c1ccc(Cl)c(Cl)c1)N1CC(F)(F)C1"
assay_result = 0.027

[[record]]
mol = "Cc1ccc(-n2c(C(=O)NC3CC3)cc3cccnc32)cc1Cl"
assay_result = 0.006

[[record]]
mol = "O=C(c1cc2cccnc2n1-c1ccnc(F)c1)N1CC(F)C1"
assay_result = 0.393


Field request: fraction unbound | item: O=C(NC1CC1)c1cc2cccnc2n1-c1ccc(Cl)c(Cl)c1
0.006

Any idea what its fraction unbound is? The molecule is COc1ncc(-n2c(C(=O)N3CC(F)C3)cc3cccnc32)cc1Cl
0.066
